# Measured target: T1, purified GmRLK18-1 LRR domain (6x his-RHG1) (Glycine max)
# T1 chain: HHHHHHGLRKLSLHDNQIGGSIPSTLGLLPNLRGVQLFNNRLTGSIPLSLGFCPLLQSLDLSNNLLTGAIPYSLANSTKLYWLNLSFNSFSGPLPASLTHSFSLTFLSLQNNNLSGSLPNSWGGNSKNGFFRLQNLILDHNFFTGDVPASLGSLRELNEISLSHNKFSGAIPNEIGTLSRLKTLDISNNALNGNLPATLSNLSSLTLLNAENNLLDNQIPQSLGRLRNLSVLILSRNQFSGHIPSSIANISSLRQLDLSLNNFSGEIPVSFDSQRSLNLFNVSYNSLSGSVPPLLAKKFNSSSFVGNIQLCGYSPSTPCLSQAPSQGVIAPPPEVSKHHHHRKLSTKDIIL
# Assay comment: fluorescence (luminescence spectrometry) titration of peptide with purified LRR domain, in vitro; apparent Kd for dimerization
Value type: Kd (nM)

* CTLSRLKTLDISNNALNGNLPATLSNLS (modifications not checked) [peptide L (GmLRR, GmRLK18-1)] | 36
